- System: PXR:RXRa (NR concentration 270 nM, RXRa partner concentration 90 nM)
- EXPERIMENT_DESCRIPTION: PBM binding z-score (relative to random genomic background probes); higher = stronger binding; sequences stand for … in GC…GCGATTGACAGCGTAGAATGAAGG
Listed here are sequences together with their documented PBM binding z-score.
METRIC_NAME: PBM binding z-score

In [3]: df
Out[3]:
                      sequence_content  observed_value
 0  CCTAGCAGGCCAGGGGCACTCAAGCATTTCGCTT          -0.801
 1  CGTCCAAGGTCAAGGTCCGTGAAAGAGACTCGAA            3.69
 2  AGAATGAGGTAATACGTAGATCAGGGAAGAAAGT           0.144
 3  GCGATTGGGGCAAAGCAGGTTACCATAAGGTTGG           0.707
 4  AGTATGAGGTTACCAAAGATCAGGGAAACGCTTG            1.62
 5  AAATGTAGGTTATCGGGTCATTCAGTTTGCGCAT            3.87
 6  TAGCCTAGGTCATGTGCCAGTATACCACGCGAAC            1.53
 7  CCGACTGGGGCAAGGTTACCCTAACGCACAGCCA           0.232
 8  CGTCCACGGTCATAGGAGGTCAGTGAAGACAGAT            3.88
 9  CAAACTAGGTCACAGAGGCCAAAGTCCGTGCGTA            3.51
10  CCTCGGAGGACAACAGGAGGTAAGAGCTGCCAGA          -0.402
11  ATCTCTAGGTAAGAATCAGTTCAGTGAAGAACGC            1.05
12  CGTCCAAGGGCATAGGAGGTCAGTGAAGACAGAT            4.38
13  ATCTCTAGGTAAAGTACAGTGAAAGATCGATAGA           0.119
14  ATATGTAGGTTATGGGTCATTCAGGTTGGTTCGC               4
15  CCTACTAGGCCATTCAGAGGTCATTGATCATATG            4.79
16  TCATATAGGCAAACAGGTGAAAGTCCGTAAGTTA           0.517
17  ATACCAAGTTGATCGTGAGGTCGTTGATACTAAC            2.78
18  CCGACTGGGCCAGAAAGGTTACCATACCATCCGG           0.831
19  TAGCCTAGGTCAGATCGGGCAAGTATACGCTATA           0.344
20  CCTACTGGGCTAAAAAGGTCATTGATGCCGATAA            4.35
21  GCGACTGGGGCGAAGCAGGTTACCATAAGGTTGG          -0.249
22  CCTACTGGGCCAAAGGTCATTTATTCCAATGCTC            5.54
23  ATCTCTAGGTAAGACTCCGTTCAGTGAAGAACGC          0.0673
24  GATACAGGGTCAGCCAGAGGCCAGAGTATGGAAA             3.4
25  ATCGAAAGGTCGTGAGGTGAGTAGACAGAAAGGC            3.07
26  AATACATGGTCACTAGGCCAGAGTAGGTACGAAT          -0.198
27  CCTACTGGGACAAGGTCATTGATCAGTCAAAGCA             3.8
28  CAGCCTAGGTCAGGGCCAGCATAGGAGGAACGTT          0.0493
29  TAGCCTGGGTCATGGGCCAGTATACCACGCGAAC            1.73
30  TCTTGTAGATCAAGCAGGTTAAGAACGCCTGAGT           0.399
31  TCTCGGAGGACACGAAGGTCAGAACTTTCCAGAG            1.84
32  CAAACTAGGTCACAGGAAGGTCAAAGTCCGCATG            5.73
33  TAGCCAAGGTCATGGGCCAGTATACCACGCGAAC            4.24
34  CAAACTAAGTCAAGGTCAAAGTCGGTTTGTGCCA            4.73
35  TGTCAAAGTTCAAAAGTAACGTAAGTATCCACAC            4.46
36  TCTATTAGTTGAAGTGCAACCGACGAGTCCGTTT           0.982
37  CCTTACGGGTCACTCCAGGTTGTAGCATCGGAGT            3.85
38  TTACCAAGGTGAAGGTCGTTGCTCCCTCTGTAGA            1.46
39  CCGACCGGGGCAGAAAGGTTACCATACCATCCGG            1.16
40  CGAACGAGGGCATGAGCTGATAGCAAATGCCGAT           0.327
41  TCTTGTAGATCAACAGGAGGTTCAGAAAGATCGA           0.256
42  TCTTGTAGACCAATAGAGGTTAAGAAAGTGCGCT            3.17
43  GCTGCTAGGTCCACTGATGGTCAGCTAAAGCTCG          -0.525
44  CCTACTGGGCCATAAGGTCATTGATATCAACGTT            3.98
45  TATACAGGGTCAAAGGCCAGCGTACGAATGTCGA            4.34
46  ACAGACAGGTCAGTGAAGGTAACTCAGCTGGACG            1.57
47  TCTTGTAGATCAACAGGTGGTTAAGAAAGATCGA         -0.0683
48  CCTACTGGGCCAAAGGTCATTGGTTCCAATGCTC            5.41
49  GGAACAAGGGCAAGTTGATAGCAGAGTTTGATGG           0.589
50  CAAACTAGGTGACAGAGGTCAAAGTCCGTGCGTA            5.61
